ASSAY SUMMARY: chemical genetic growth profiling, strain panel (AID 1159580);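 further: tested at 20 µM; growth read once vehicle control cultures reached saturation at 30 °C; 1 = growth at the plate median or of vehicle wells; lower values mean less growth of the strain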
SETUP CONDITIONS: S. cerevisiae deletion strains, growth OD, locus YPL078C, strain atp4, hits give low values
Screen size: about 5,500 compounds; about 2,000 (36%) were called active. Inconclusive results (about 18%) are left out. The list shows a part of the results.
REPORTED METRIC: normalized growth
# print the numeric value only

COc1ccccc1N1CCN(CCCNc2cc(=O)n(C)c(=O)n2C)CC1    1.03
NC(=O)c1ccc([N+](=O)[O-])cc1Cl    1.02
O=S(=O)(O)O    0.982
Cc1ccc(-c2nc3ccc(C)cn3c2CC(=O)N(C)C)cc1    1.03
NS(=O)(=O)c1cc2c(cc1C(F)(F)F)NC(Cc1ccccc1)NS2(=O)=O (configuration not stated)    0.988

Q: Look up and state reported normalized growth for NCCCN
A: 1

Q: Answer with reported normalized growth of CC[C@@]1(O)C(=O)OCc2c1cc1n(c2=O)Cc2cc3cc(O)ccc3nc2-1
A: 1.04

Every entry's value here was drawn from PubChem BioAssay AID1159580.
